SI values, listed per item
# testedOn: Dipeptidyl peptidase II and dipeptidyl peptidase IV (DPP2 and DPP4) (Homo sapiens) (UniProt P27487+Q9UHL4)
# assayRemarks: Selectivity index against Dipeptidyl Peptidase IV and Dipeptidyl Peptidase II inhibitory activities
# Format: protein assay
attributeMeasured: SI

>>> reading("NCCCCC(N)C(=O)N1CCCCC1 (centres undefined)")
154
>>> reading("NCCCCC(NC(=O)OCc1ccccc1)C(=O)N1CCCCC1 (centres undefined)")
64
>>> reading("NCCCC(N)C(=O)N1CCCCC1 (centres undefined)")
"> 1110"
>>> reading("NCC[C@H](N)C(=O)N1CCCCC1")
"> 7590"

---

Reported IC50 values, Dipeptidyl peptidase 4 (Homo sapiens, UniProt P27487).
attributeMeasured: IC50 (µM)

>>> reading("NC(=O)CC(N)C(=O)N1CCCC1 (centres undefined)")
188
>>> reading("CCC(C)C(N)C(=O)N1CCCCC1 (centres undefined)")
67
>>> reading("N[C@@H](CC1CCCCC1)C(=O)N1CCCCC1")
217
>>> reading("N[C@@H](CC(=O)O)C(=O)N1CCCC1")
122
>>> reading("NCCCCC(N)C(=O)N1CCCC1 (centres undefined)")
39
>>> reading("NC(Cc1ccc(O)cc1)C(=O)N1CCCC1 (centres undefined)")
14
>>> reading("NC(Cc1c[nH]cn1)C(=O)N1CCCC1 (centres undefined)")
23.2
